Item-by-item account of MIC
Test system: Enterococcus faecalis
Assay text: Antibacterial activity against Enterococcus faecalis SR7914 (VRE)
Type: functional

Consider the reported MIC for these compounds:
CC(=O)N[C@H]1CCN[C@H]([C@H](O[C@@H]2O[C@H](CN)[C@@H](O)[C@H]2O)[C@H]2O[C@@H](n3ccc(=O)[nH]c3=O)[C@H](O)[C@@H]2O)C1	> 64 µg/mL
CC(=O)N[C@@H]1CCN[C@H]([C@H](O[C@@H]2O[C@H](CN)[C@@H](O)[C@H]2O)[C@H]2O[C@@H](n3ccc(=O)[nH]c3=O)[C@H](O)[C@@H]2O)C1	> 64 µg/mL
CC(=O)N[C@@H]1CCN[C@@H]([C@@H](O[C@@H]2O[C@H](CN)[C@@H](O)[C@H]2O)[C@H]2O[C@@H](n3ccc(=O)[nH]c3=O)[C@H](O)[C@@H]2O)C1	> 64 µg/mL

I'd like to know its MIC. The compound in question is CC(=O)N[C@H]1CCN[C@H]([C@@H](O[C@@H]2O[C@H](CN)[C@@H](O)[C@H]2O)[C@H]2O[C@@H](n3ccc(=O)[nH]c3=O)[C@H](O)[C@@H]2O)C1
> 64 µg/mL
